Assay: yeast display, Sf9 membrane polyspecificity reagent, FACS + sequencing; frameworks hold sequencing errors
parameter: polyreactivity (PSR sort gate)

seq string	parameter	recorded value
QVQLVESGGGLVQAGGSLRLICAASGRTFVANTMGWYRQAPGKERELVATITWNGGSTYYADSVKGRFTISRDNAKNTVYLQMNSLKPEDTAVYYCAKEAYFRRYYVYRYGYWGQGTQVTVSS	polyreactivity (PSR sort gate)	high polyreactivity
QVQLVESGGGLVQPGGSLRLSCAASGRIFGWYAMGWYRQAPGKERELVAAITWSGTSTYYADSVKGRFTISRDNAKNTVYLQMNSLKPEDTAVYYCAADSLRGSAPTYYSTLEYWGQGTQVTVSS	polyreactivity (PSR sort gate)	low polyreactivity
QVQLVESGGGLVQAGGSLRLSCAASGRIFRAYAMGWYRQAPGKERELVAVITGSGGSTYYADSVKGRFTISRDNAKNTVYLQMNSLKPEDTAVYYCAAPVHTASGRWVPGYYYWGQGTQVTVSS	polyreactivity (PSR sort gate)	high polyreactivity
QVQLVESGGGLVQAGGSLRLSCAASGTFKWYAMGWYSQAPGKERELDAVISSSGGTTYYADSVKGRFTISRDNAKNTVYLQMNSLKPEDTAVYYCNKRFRSWTTGSPYDYWGQGTQVTVSS	polyreactivity (PSR sort gate)	high polyreactivity

Could you now consider this next sequence?
// query polyreactivity (PSR sort gate) value for entry `QVQLVESGGGLVQAGGSLRLSCASSGRIFRGYAKGGYRQAPGKERELVADISSGASTNYADSVKGRFTISRDNAKNSVYLQMNRLKPEDTAVYYCAASIYAALIGGPGYDYWGQGTQVTVSS`
low polyreactivity

---

Test: yeast display, Sf9 membrane polyspecificity reagent, FACS + sequencing; frameworks hold sequencing errors
parameter: polyreactivity (PSR sort gate)

Study these solved cases before continuing.
seq string	polyreactivity (PSR sort gate)
QVQLVESGGGLVQAGGSLRLSCAASGSTFTTYAMGWYRQAPGKERELVAAISYGGGSTYYADSVKGRFTISRDNAKNTVYLQMNSLKPEDTAVYFCAAVAWASDGYDSWGQGTQVTVSS	low polyreactivity
QVQLVESGGGLVHGGGSLSLSFDASGSIFRVYPMGWYSPAPGKERELVAAIDSGPSTTYADCVTGRFTISRDNAKNTVYLLMNRLKPVDTEVYCFAADGWLWSFTGDGWWFDYWGQGTQVSVSS	low polyreactivity
QVKLVESGGGLDQAGGSLRLSCAASGRTFGSYTMGWYRQAPGKERELVAAITSGGRTNYADSVKGRFTISRDNAKNTVYLQMNSLKPEDTAVYYCAAGWRGGRYRYFAYDYWGQGTQVTVSS	high polyreactivity
QVQLVESGGGLVQAGGSLRLSCAASGLTFIFNTMGWYRQAAGKERVLVAAISTSGGSTYYADSVKGRFTISRDNANNTVYLQMNSVKQEDTAFYYCAKEFKYWGYPYEYWGQGTLVTVSS	low polyreactivity
QVQLVESGGGLVQAGGSLRLSCAASGSTFVDYAMGWYRQAPGKERELVAAINERGGSTYYADSVKGRFTISRDNAKNTVYLQMNSLKPEDTAVYYCAKQLWVGVKYDYWGQGTQVTVSS	low polyreactivity

// query polyreactivity (PSR sort gate) value for entry `QVQLVESGGCLVQAGGSLRLSCAASGSIRSYAMGWYRQAPGKERELVAAITRSGGSTYYADSVKGRFTISRDNAKNTVYLPMKSLKPEDTAVYYCAARYTYSYPLFGSWGQGTQVTVSS`
high polyreactivity

// query polyreactivity (PSR sort gate) value for entry `QVQLVESGGGLVQAGGSLRLSCAASGRILTGYAMGWYRQAPGKERELVAAISNDTDSTHYADSVKGRFTISRDNAKNTVYLQMNSLKPEDTAVYYCATDAPLQKRWRRFDYWGQGTQVTVSS`
low polyreactivity

// query polyreactivity (PSR sort gate) value for entry `QVQLVESGGGLVQAGGSLRLSCAASVFIFGTNAMGWYRQAPGKERELVASISSTGGSTYYADSVKGRLTISRDNAKNTVYLQMNSLIPEDNAVSFCASDHYPEYIRYVPGVDYWGQGTQVTVSS`
low polyreactivity

// query polyreactivity (PSR sort gate) value for entry `QVQLVESAGGLVQEGGSLRLSCAASGRIFARYAMGWSRQAPGKERELVAAITDSGDNTYYADSVKGRFTISRDNAKNTVYLQMNSLKPEDTAVYYCKAYFLVHYRRLRPYDYWGHGTQVTVSS`
low polyreactivity

// query polyreactivity (PSR sort gate) value for entry `QVQLVESGGGLVQAGGSLRLSCAASGSIFGTNAMGWYRQAPGKERELVATITSAGSTYYADSVKGRFTISRYNAKNTVYLQMNSLKPEDTAVYYCARQATGYVYREYEYWGQGTQVTVSS`
low polyreactivity

// query polyreactivity (PSR sort gate) value for entry `QVQVVESGGGLVQAGGSLRLSCAASGRTFGPYAMGWFRQAPGKEREFVAAISYSGGSTYYADSVKWRFTISRDNAKNTVYLQMNSLKPEDTAVYYCAAEGDYYDFISPPLDYWGQGTQVTVAS`
low polyreactivity
